subjectOfTest: Histone deacetylase
protocol: Inhibition of HDAC (unknown origin)
Type: protein assay, Homo sapiens
Recorded IC50 values for a group of compounds are listed next.
# value in µM; strip the unit string

Use these answered entries as a reference point.
CC(C)n1cnc2c(-c3cccc(COCC(=O)NO)c3)nc(N3CCOCC3)nc21 0.035
CC(C)n1cnc2c(-c3cccc(COCCCCCCC(=O)NO)c3)nc(N3CCOCC3)nc21 0.035
Cc1nc2ccc(Cl)cc2c(=O)n1Cc1ccc(C(=O)NO)cc1 0.76
O=C(CCC(=O)Nc1nnc(-c2ccc(Cl)cc2)s1)NO 0.2
CC(C)n1cnc2c(-c3ccc(OCCCCCCC(=O)NO)cc3)nc(N3CCOCC3)nc21 0.278
CC(C)n1cnc2c(-c3cccc(OCCCCCC(=O)NO)c3)nc(N3CCOCC3)nc21 0.035
CC(C)n1cnc2c(-c3ccc(COCCCCCCCC(=O)NO)cc3)nc(N3CCOCC3)nc21 0.278
CC(C)n1cnc2c(-c3ccc(COCC(=O)NO)cc3)nc(N3CCOCC3)nc21 0.278

Lab note: CC(C)n1cnc2c(-c3cccc(OCC(=O)NO)c3)nc(N3CCOCC3)nc21 gave IC50 of 0.035

Lab note: CC(C)n1cnc2c(-c3cccc(COCCCCCC(=O)NO)c3)nc(N3CCOCC3)nc21 gave IC50 of 0.035

Data provenance is ChEMBL document CHEMBL5230103.
